Measurement Target: T1, Siglec-7-ECD (human, UniProt Q9Y286 19-353)
T1 construct: also called p75; AIRM
T1 sequence (Q9Y286 19-353 limits assumed): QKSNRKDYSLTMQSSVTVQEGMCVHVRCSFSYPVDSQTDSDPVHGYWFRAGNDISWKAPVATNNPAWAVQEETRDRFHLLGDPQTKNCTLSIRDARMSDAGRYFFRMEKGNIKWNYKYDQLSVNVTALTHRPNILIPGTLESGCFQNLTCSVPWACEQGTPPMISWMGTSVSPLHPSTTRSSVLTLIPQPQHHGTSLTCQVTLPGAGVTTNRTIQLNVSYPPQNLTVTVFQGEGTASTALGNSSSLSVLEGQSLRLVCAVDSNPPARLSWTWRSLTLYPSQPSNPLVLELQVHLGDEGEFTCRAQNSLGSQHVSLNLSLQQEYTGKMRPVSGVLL
Assay Summary: monovalent Fab; bio-layer interferometry (ForteBio) per Methods
Recorded Metric: Kd

binder="humanized 16H11-derived Fab, VH AK446-7 / VL AK419-2 (Fab, V domains shown, Measured as monovalent Fab; also called No. 37) VH: QVQLVQSGAEVKKPGSSVKVSCKASGYDFSNFWMNWVRQAPGQGLEWMGQIYPGDGEIKYNQKFQGRVTITADESTSTAYMELSSLRSEDTAVYYCARDDYLRAMDIWGQGTMVTVSS VL: DIQMTQSPSSLSASVGDRVTITCRASQNIHNYLAWYQQKPGKAPKFLLYSAKRLESGVPSRFSGSGSGTDYTLTISSLQPEDFATYYCQHFWSSPYTFGGGTKVEIK" measured_result="> 0.5 nM"
binder="humanized 16H11-derived Fab, VH AK465-17 / VL AK419-2 (Fab, V domains shown, Measured as monovalent Fab; also called No. 40) VH: QVQLVQSGAEVKKPGSSVKVSCKASGYDFSNFWMNWVRQAPGQGLEWMGQIYPGDGEIKYAQKFQGRVTITADESTSTAYMELSSLRSEDTAVYYCARDDYLRAMDIWGQGTMVTVSS VL: DIQMTQSPSSLSASVGDRVTITCRASQNIHNYLAWYQQKPGKAPKFLLYSAKRLESGVPSRFSGSGSGTDYTLTISSLQPEDFATYYCQHFWSSPYTFGGGTKVEIK" measured_result="0.15 to 0.25 nM"
binder="humanized 16H11-derived Fab, VH AK449-6 / VL AK418-2 (Fab, V domains shown, Measured as monovalent Fab; also called No. 30; VH449-6 and VL418-2) VH: QVQLVQSGAEVKKPGSSVKVSCKGSGYDFSNFWMNWVRQAPGQGLEWMGGIYPGDGEIKYNQKFQGRVTITADESTSTAYMELSSLRSEDTAVYYCARDDYLRAMDIWGQGTMVTVSS VL: DIQMTQSPSSLSASVGDRVTITCRASGNIHNYLAWYQQKPGKAPKFLLYSAKRLESGVPSRFSGSGSGTDYTLTISSLQPEDFATYYCQHFWSSPYTFGGGTKVEIK" measured_result="< 0.1 nM"

The measured values listed here are drawn from patent US20190194323A1.
